system: RSK3(Kin.Dom.2-C-terminal); construct: gene RPS6KA2; details: Compound Concentration (nM):1000;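 also: KINOMEscan scanMAX binding as percent activity remaining versus control; lower means stronger binding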
measurement_name: Percent Control (%)
Write the number in % without appending the unit.

The cases that follow already have their Percent Control on record.
[[record]]
molecule = "NS(=O)(=O)c1ccc(N/N=C2\\C(=O)Nc3ccc(C(=O)NCc4ccncc4)cc32)cc1 [GW300657X]"
numeric_result = 80

[[record]]
molecule = "COc1ccc2c(-c3ccnc(Nc4cccc(OC(F)(F)F)c4)n3)cnn2n1 [GW810372X]"
numeric_result = 99

[[record]]
molecule = "COc1cccc(-n2ncc3c(N/N=C/c4ccncc4)ncnc32)c1 [GW784752X]"
numeric_result = 98


Value of measured Percent Control for the entry C/C(Nc1ccc(S(N)(=O)=O)cc1)=C1/C(=O)Nc2ccccc21 [GW335962X] : 82

Value of measured Percent Control for the entry CN(C)c1cc2c(Nc3ccc4c(cnn4Cc4ccccc4)c3)ncnc2cn1 [GW282974X] : 93

Value of measured Percent Control for the entry C[C@@H](Oc1cc(-n2cnc3ccc(OC4CCN(C)CC4)cc32)sc1C(N)=O)c1ccccc1Cl [GSK579289A] : 67

Value of measured Percent Control for the entry COc1cc(C)c(N(C)C(=O)CN(C)C)cc1Nc1nc(Nc2cccc(F)c2C(N)=O)c2cc[nH]c2n1 [GSK2219385] : 90

Value of measured Percent Control for the entry COc1cc2ncn(-c3cc(O[C@H](C)c4ccccc4Cl)c(C(N)=O)s3)c2cc1OC [GSK237701A] : 90

---

Some compounds, each annotated with its measured Percent Control.
system: ARK5; construct: gene NUAK1; settings: Compound Concentration (nM):1000
Write the number in % without appending the unit.

The cases that follow already have their Percent Control on record.
[[record]]
compound = "COc1ccc2c(-c3ccnc(Nc4cccc(OC(F)(F)F)c4)n3)cnn2n1 [GW810372X]"
system_under_test = "ARK5"
measurement_name = "Percent Control"
numeric_result = 100

[[record]]
compound = "NS(=O)(=O)c1ccc(N/N=C2\\C(=O)Nc3ccc(C(=O)NCCc4c[nH]cn4)cc32)cc1 [GW300660X]"
system_under_test = "ARK5"
measurement_name = "Percent Control"
numeric_result = 80


Field Percent Control (ARK5), entry `CCn1c(-c2nonc2N)nc2c(C#CC(C)(C)O)nc(OCCNC)cc21.Cl` : 100

Field Percent Control (ARK5), entry NS(=O)(=O)c1ccc(N/N=C2\C(=O)Nc3ccc(C(=O)NCc4ccncc4)cc32)cc1 [GW300657X] : 86

---

Some molecules, each annotated with its measured Percent Control.
test system: ALK; settings: Compound Concentration (nM):1000
Write the number in % without appending the unit.

The cases that follow already have their Percent Control on record.
[[record]]
molecule = "COc1ccc2c(-c3ccnc(Nc4cccc(OC(F)(F)F)c4)n3)cnn2n1 [GW810372X]"
measurement_name = "Percent Control"
numeric_result = 88

[[record]]
molecule = "CC(C)COC(=O)c1ccc2c(c1)/C(=C/Nc1ccc(S(N)(=O)=O)cc1)C(=O)N2 [GW416981X]"
measurement_name = "Percent Control"
numeric_result = 100


Field Percent Control (ALK), entry CN(C)c1cc2c(Nc3ccc4c(cnn4Cc4ccccc4)c3)ncnc2cn1 [GW282974X] : 100

Field Percent Control (ALK), entry COc1cc(C=NNc2ncnc3c2cnn3-c2ccccc2)ccc1O [GW513184X] : 100

Field Percent Control (ALK), entry CC1=C(C(=O)Nc2ccc3[nH]ncc3c2)C(c2ccc3ccccc3c2)CC(=O)N1 (centres unmarked) [GSK270822A] : 68

Field Percent Control (ALK), entry O=C1Nc2ccc(C(=O)c3ccco3)cc2C1=Cc1cc(Cl)c(O)c(Cl)c1 [GW406108X] : 89

Field Percent Control (ALK), entry `COc1cc(C)c(N(C)C(=O)CN(C)C)cc1Nc1nc(Nc2cccc(F)c2C(N)=O)c2cc[nH]c2n1` : 1.7

Field Percent Control (ALK), entry `NS(=O)(=O)c1ccc(N/N=C2\C(=O)Nc3ccc(-c4cnco4)cc32)cc1` : 83
